- STUDY_TARGET: EGFR (C797S/T790M/L858R) (Homo sapiens (Human), UniProt P00533, C797S/L858R/T790M)
- Sequence (P00533 25-1210 T790M/C797S/L858R): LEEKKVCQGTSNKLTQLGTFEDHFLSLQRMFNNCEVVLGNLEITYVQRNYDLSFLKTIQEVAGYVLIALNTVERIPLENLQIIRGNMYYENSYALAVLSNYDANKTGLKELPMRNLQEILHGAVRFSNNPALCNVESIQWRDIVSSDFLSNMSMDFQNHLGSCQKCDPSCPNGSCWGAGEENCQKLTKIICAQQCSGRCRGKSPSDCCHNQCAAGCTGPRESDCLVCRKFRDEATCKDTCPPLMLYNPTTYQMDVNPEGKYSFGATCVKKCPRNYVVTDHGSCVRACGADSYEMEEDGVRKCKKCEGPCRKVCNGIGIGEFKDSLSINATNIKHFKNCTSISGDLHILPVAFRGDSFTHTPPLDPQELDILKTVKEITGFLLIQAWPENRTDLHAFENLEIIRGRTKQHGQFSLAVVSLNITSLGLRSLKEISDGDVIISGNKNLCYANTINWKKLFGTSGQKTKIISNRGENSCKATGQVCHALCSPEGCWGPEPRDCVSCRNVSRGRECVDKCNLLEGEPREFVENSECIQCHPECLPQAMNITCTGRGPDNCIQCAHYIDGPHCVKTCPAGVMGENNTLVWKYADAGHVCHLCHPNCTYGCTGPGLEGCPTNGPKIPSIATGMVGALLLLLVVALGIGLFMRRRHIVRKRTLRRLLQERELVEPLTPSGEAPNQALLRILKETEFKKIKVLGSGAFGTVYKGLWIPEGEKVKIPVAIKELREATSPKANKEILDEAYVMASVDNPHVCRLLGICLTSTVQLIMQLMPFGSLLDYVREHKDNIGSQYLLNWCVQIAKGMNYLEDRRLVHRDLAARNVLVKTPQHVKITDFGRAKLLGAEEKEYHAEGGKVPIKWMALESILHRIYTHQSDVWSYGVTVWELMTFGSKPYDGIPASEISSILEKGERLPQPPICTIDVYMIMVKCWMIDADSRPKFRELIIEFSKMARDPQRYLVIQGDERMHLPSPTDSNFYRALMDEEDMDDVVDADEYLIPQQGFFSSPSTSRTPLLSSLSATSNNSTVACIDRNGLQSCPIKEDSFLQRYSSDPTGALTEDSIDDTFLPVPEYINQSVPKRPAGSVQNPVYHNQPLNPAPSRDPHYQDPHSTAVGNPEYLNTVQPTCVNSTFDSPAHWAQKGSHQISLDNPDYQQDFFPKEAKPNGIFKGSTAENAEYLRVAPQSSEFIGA
- TEST_NAME: Enzyme activity experiment (2): EGFR (C797S/T790M/L858R) enzyme inhibition
MEASURED_ATTRIBUTE: pIC50
Numbers only, as −log10 of the molar value.

Notebook: CCc1cc(Nc2ncc(Br)c(Nc3ccc4nccnc4c3P(C)(C)=O)n2)c(OC)cc1N1CCC(N2CCN(C)CC2)CC1 , pIC50 read as 9.59

* * *

- Test system: pEGFR Ba/F3 (EGFR Δ19del/T790M/C797S) cells
- TEST_NAME: Cell phosphorylation inhibition experiment, pEGFR Ba/F3 (EGFR Δ19del/T790M/C797S)
- Assay type: cell-based
- DETAILS: Ba/F3 EGFR; Ba/F3 cells, EGF stimulated; read-out: Effect on cellular EGFR phosphorylation Ba/F3(Δ19del/T790M/C797S) IC50
MEASURED_ATTRIBUTE: pIC50
Answers are plain numbers, as −log10 of the molar value.

// worked examples, pIC50 included
{"MOLECULE": "COc1cc(N2CCC3(CCN(C)CC3)CC2)c(Cl)cc1Nc1ncc(Cl)c(Nc2ccc3ccccc3c2P(C)(C)=O)n1 [Compound 4]", "READING": 6.56}
{"MOLECULE": "COc1cc(N2CCC(N3CCN(C)CC3)CC2)ccc1Nc1ncc(Cl)c(Nc2ccc3sccc3c2P(C)(C)=O)n1 [Compound 3]", "READING": 6.73}
{"MOLECULE": "COc1cc(N2CCC(N3CCN(C)CC3)CC2)c(C)cc1Nc1ncc(Br)c(Nc2ccc3nccnc3c2P(C)(C)=O)n1 [Compound 34]", "READING": 7.72}
{"MOLECULE": "COc1cc(N2CCC3(CC2)CN(C)C3)c(C)cc1Nc1ncc(Cl)c(Nc2ccc3ccccc3c2P(C)(C)=O)n1 [Compound 9]", "READING": 6.83}
{"MOLECULE": "CCc1cc(Nc2ncc(Br)c(Nc3ccc4nccnc4c3P(C)(C)=O)n2)c(OC)cc1N1CCC2(CC1)CN(C)C2 [Compound 40]", "READING": 7.62}

Please give pIC50, item by item, for the list that follows.
1. COc1cc(N2CCC3(CC2)CN(CCN(C)C)C3)c(C)cc1Nc1cc(Nc2ccc3nccnc3c2P(C)(C)=O)c(Br)cn1 [Compound 37]
2. COc1cc(N2CCC3(CC2)CN(C)C3)c(C)cc1Nc1ncc(Cl)c(Nc2ccc3sccc3c2P(C)(C)=O)n1 [Compound 2]

Ans.
7.03
7.17

Data provenance is patent US11390625B2.
